- TARGET_ENTITY: Neuronal acetylcholine receptor; alpha2/beta4 (Rattus norvegicus, UniProt P12389+P12392)
- Sequence (P12389 whole entry): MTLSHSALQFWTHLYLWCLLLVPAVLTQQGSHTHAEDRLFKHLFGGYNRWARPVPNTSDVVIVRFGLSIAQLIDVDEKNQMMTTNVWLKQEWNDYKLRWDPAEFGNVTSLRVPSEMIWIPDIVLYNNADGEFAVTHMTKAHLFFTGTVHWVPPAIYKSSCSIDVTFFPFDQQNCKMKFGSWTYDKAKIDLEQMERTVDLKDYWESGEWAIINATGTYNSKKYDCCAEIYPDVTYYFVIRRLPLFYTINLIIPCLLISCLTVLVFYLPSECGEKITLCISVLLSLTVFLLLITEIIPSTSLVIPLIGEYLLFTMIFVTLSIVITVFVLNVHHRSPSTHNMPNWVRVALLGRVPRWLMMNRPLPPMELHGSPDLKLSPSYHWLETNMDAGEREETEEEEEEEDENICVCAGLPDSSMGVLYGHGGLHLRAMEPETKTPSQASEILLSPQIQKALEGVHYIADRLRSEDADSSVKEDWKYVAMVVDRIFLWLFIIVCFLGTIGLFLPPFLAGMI
- Sequence (P12392 whole entry): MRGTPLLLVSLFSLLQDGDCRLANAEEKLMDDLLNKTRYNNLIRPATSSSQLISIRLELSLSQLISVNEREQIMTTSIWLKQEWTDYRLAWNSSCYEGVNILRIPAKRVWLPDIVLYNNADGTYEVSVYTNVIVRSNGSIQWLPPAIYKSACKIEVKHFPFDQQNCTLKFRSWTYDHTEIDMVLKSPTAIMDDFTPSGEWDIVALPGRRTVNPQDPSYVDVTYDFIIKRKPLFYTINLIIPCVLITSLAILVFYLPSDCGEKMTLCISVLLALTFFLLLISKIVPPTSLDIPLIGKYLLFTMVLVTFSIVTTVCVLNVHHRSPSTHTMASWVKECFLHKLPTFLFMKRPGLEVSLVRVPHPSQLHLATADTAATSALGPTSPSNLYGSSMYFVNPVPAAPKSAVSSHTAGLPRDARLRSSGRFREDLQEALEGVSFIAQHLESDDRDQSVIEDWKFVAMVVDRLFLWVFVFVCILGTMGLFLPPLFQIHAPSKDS
- ASSAY_EXPLANATION: In vitro binding affinity towards rat Nicotinic acetylcholine receptor alpha2-beta4 using 0.5 nM [3H]epibatidine
OBSERVABLE: Ki (nM)
Write down the numeric answer in nM and omit the unit.

Some compounds with known Ki results, for comparison:
{"COMPOUND": "Cc1cc(-c2cc(C3CC4CCC3N4)cnc2F)ccc1F (stereo unspecified)", "TARGET_ENTITY": "Neuronal acetylcholine receptor; alpha2/beta4 (Rattus norvegicus, UniProt P12389+P12392)", "Ki (nM)": 60.1}
{"COMPOUND": "Cc1ccc(-c2cc(C3CC4CCC3N4)cnc2F)cc1 (stereo unspecified)", "TARGET_ENTITY": "Neuronal acetylcholine receptor; alpha2/beta4 (Rattus norvegicus, UniProt P12389+P12392)", "Ki (nM)": 0.541}
{"COMPOUND": "Fc1ncc(C2CC3CCC2N3)cc1-c1ccc(Cl)cc1 (stereo unspecified)", "TARGET_ENTITY": "Neuronal acetylcholine receptor; alpha2/beta4 (Rattus norvegicus, UniProt P12389+P12392)", "Ki (nM)": 4.12}
{"COMPOUND": "N#Cc1ccc(-c2cc(C3CC4CCC3N4)cnc2F)cc1 (stereo unspecified)", "TARGET_ENTITY": "Neuronal acetylcholine receptor; alpha2/beta4 (Rattus norvegicus, UniProt P12389+P12392)", "Ki (nM)": 3.67}
{"COMPOUND": "Fc1ncc(C2CC3CCC2N3)cc1-c1ccc(Cl)c(Cl)c1 (stereo unspecified)", "TARGET_ENTITY": "Neuronal acetylcholine receptor; alpha2/beta4 (Rattus norvegicus, UniProt P12389+P12392)", "Ki (nM)": 6.99}

We now examine a further compound.
API: value(readout= Ki, system= Neuronal acetylcholine receptor; alpha2/beta4 (Rattus norvegicus, UniProt P12389+P12392), query= Fc1ncc(C2CC3CCC2N3)cc1-c1ccccc1 (stereo unspecified) )
16.6

----------
- TARGET_ENTITY: Neuronal acetylcholine receptor; alpha2/beta4 (Rattus norvegicus, UniProt P12389+P12392)
- ASSAY_EXPLANATION: In vitro binding affinity towards rat Nicotinic acetylcholine receptor alpha2-beta4 using 0.5 nM [3H]epibatidine
Ki vs 0.9 nM: less than gives t; not less than gives f.

API: query returns whether the molecule falls strictly under 0.9 nM in Ki. Query: COc1ccc(-c2cc(C3CC4CCC3N4)cnc2Cl)cc1 (stereo unspecified)
t

----------
- TARGET_ENTITY: Neuronal acetylcholine receptor; alpha4/beta4 (Rattus norvegicus, UniProt P09483+P12392)
- Sequence (P09483 whole entry): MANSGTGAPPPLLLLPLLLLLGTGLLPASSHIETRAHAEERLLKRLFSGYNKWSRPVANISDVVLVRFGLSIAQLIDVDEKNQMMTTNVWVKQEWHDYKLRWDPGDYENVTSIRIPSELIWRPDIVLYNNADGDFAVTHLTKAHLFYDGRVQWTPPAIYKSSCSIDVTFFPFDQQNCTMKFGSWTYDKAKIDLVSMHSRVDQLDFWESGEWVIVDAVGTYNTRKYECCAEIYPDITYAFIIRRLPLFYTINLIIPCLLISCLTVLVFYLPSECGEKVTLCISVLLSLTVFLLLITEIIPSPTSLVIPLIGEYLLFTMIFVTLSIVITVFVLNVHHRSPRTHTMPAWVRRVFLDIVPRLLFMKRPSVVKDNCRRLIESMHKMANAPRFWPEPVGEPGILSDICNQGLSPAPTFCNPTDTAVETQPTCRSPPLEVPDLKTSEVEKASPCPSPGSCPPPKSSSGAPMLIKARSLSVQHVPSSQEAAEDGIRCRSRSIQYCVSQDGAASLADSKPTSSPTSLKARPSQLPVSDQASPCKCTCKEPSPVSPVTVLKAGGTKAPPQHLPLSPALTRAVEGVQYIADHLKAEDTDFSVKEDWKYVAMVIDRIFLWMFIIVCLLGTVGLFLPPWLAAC
- Sequence (P12392 whole entry): as the sequence (P12392 whole entry) above
- ASSAY_EXPLANATION: In vitro binding affinity towards rat Nicotinic acetylcholine receptor alpha4-beta4 using 0.5 nM [3H]epibatidine
OBSERVABLE: Ki (nM)
Write down the numeric answer in nM and omit the unit.

Some molecules with known Ki results, for comparison:
{"MOLECULE": "Cc1cccc(-c2cc(C3CC4CCC3N4)cnc2F)c1 (configuration not stated)", "Ki / nM": 36.7}
{"MOLECULE": "Clc1ncc(C2CC3CCC2N3)cc1-c1ccccc1 (configuration not stated)", "Ki / nM": 1.15}
{"MOLECULE": "Cc1cc(-c2cc(C3CC4CCC3N4)cnc2F)ccc1F (configuration not stated)", "Ki / nM": 67.6}
{"MOLECULE": "Fc1ccc(-c2cc(C3CC4CCC3N4)cnc2F)cc1 (configuration not stated)", "Ki / nM": 6.42}
{"MOLECULE": "N#Cc1ccc(-c2cc(C3CC4CCC3N4)cnc2F)cc1 (configuration not stated)", "Ki / nM": 3.6}
{"MOLECULE": "Fc1ncc(C2CC3CCC2N3)cc1-c1ccccc1 (configuration not stated)", "Ki / nM": 26}

API: value(readout= Ki, system= Neuronal acetylcholine receptor; alpha4/beta4 (Rattus norvegicus, UniProt P09483+P12392), query= Fc1ncc(C2CC3CCC2N3)cc1-c1ccc(Cl)c(Cl)c1 (configuration not stated) )
7.36

How about this molecule: Fc1ncc(C2CC3CCC2N3)cc1-c1ccc(Cl)cc1 (configuration not stated)
3.99

How about this molecule: Cc1ccc(-c2cc(C3CC4CCC3N4)cnc2Cl)cc1 (configuration not stated)
4.75

How about this molecule: Cc1ccc(-c2cc(C3CC4CCC3N4)cnc2F)cc1 (configuration not stated)
1.22

How about this molecule: CN1C2CCC1C(c1cnc(Cl)c(-c3ccccc3)c1)C2 (configuration not stated)
1.57

How about this molecule: COc1ccc(-c2cc(C3CC4CCC3N4)cnc2Cl)cc1 (configuration not stated)
1.57
